Form field: melting point (one value per entry).
Structures can show the parent of a compound that is named as a salt.

COMPOUND | melting point
CCOC(=O)C(C)(C)c1ccc(CN2CCC(CCC(=O)c3ccc4c(c3)CCN(Cc3ccc(F)cc3)CC4)CC2)cc1 (as salt: hydrochloride) [Example 43, Dihydrochloride] | 228 to 231 °C (dec.)
O=C(CCC1CCN(Cc2ccccn2)CC1)c1ccc2c(c1)CN(Cc1ccccc1)CCO2 (as salt: hydrochloride) | 238 to 240 °C
COc1ccc(CN2CCc3cc(C(=O)CCC4CCN(Cc5ccccc5)CC4)ccc32)cc1.O=C(O)/C=C/C(=O)O | 95 to 98 °C
O=C(CCC1CCN(Cc2cccc(-c3ccccc3)c2)CC1)c1ccc2c(c1)CN(Cc1ccc(F)cc1)CCO2 (as salt: hydrochloride) | 187 to 189 °C
O=C(CCC1CCN(Cc2cccc(Cl)c2)CC1)c1ccc2c(c1)CN(Cc1ccc(F)cc1)CCO2 (as salt: hydrochloride) [Example 80, Dihydrochloride] | 224 to 225 °C
